- Assay Protocol: Solubility of compound in phosphate buffer at pH 6.5
- Format: physicochemical
Recorded Metric: solubility (µg/mL)
# unit: µg/mL | format: bare number

# Chemical Smiles, Value Units, solubility
data = [
    ("COC(=O)N[C@H](C(=O)N[C@@H](Cc1ccccc1)[C@H](CN(Cc1ccc(-c2ccccn2)cc1)NC(=O)[C@@H](NC(=O)OC)C(C)(C)C)OC(=O)OCOC(=O)[C@@H](C(C)C)N(C)C)C(C)(C)C", "µg/mL", 6),
]

Next molecule, please.
Enquiry: Query: solubility; subject: `COC(=O)N[C@H](C(=O)N[C@@H](Cc1ccccc1)[C@H](CN(Cc1ccc(-c2ccccn2)cc1)NC(=O)[C@@H](NC(=O)OC)C(C)(C)C)OC(=O)OCOC(=O)[C@H](C(C)C)N(C)C)C(C)(C)C`
Return: 5
